- MEASURED_ON: human NHE3 (Homo sapiens, UniProt P48764)
- Sequence (P48764 26-834): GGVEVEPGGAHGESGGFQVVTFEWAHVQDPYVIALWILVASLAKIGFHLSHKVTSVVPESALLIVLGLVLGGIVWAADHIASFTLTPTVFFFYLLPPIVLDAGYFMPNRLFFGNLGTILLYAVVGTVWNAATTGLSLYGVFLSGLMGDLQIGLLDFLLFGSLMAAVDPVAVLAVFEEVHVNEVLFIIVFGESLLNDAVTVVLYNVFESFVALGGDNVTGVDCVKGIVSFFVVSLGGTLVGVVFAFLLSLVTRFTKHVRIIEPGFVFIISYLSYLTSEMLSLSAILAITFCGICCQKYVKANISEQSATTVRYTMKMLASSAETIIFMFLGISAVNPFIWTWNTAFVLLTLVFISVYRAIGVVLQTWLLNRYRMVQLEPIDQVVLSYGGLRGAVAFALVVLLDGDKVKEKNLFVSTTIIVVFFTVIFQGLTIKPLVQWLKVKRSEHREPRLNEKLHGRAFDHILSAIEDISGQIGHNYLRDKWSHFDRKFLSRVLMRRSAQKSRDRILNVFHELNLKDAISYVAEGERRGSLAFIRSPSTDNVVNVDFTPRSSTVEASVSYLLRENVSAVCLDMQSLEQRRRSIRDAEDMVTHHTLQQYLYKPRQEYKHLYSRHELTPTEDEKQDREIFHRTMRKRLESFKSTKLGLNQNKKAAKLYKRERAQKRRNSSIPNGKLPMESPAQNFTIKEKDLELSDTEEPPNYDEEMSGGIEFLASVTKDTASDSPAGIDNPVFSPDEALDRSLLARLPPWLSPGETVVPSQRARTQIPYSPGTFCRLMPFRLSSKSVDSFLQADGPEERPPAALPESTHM
- TEST_DESCRIPTION: NHE3 inhibition test (recovery of intracellular pH in cell line stably expressing human NHE3)
- CONDITION_DESCRIPTION: OK cells deficient in endogenous NHE stably expressing human NHE3; BCECF fluorescence, initial rate of pH recovery; read-out: human NHE3 inhibitory activity IC50
Structures can show the parent of a compound that is named as a salt.
MEASUREMENT_KIND: IC50 (nM)
Report as a plain number; the unit nM is understood.

CN1Cc2c(Cl)cc(Cl)cc2[C@H](c2cccc(-c3cn(CCOCCOCCOCCOCCNC(=O)Nc4ccc(NC(=O)NCCOCCOCCOCCOCCn5cc(-c6cccc([C@@H]7CN(C)Cc8c(Cl)cc(Cl)cc87)c6)nn5)cc4)nn3)c2)C1; 5.7

Attention now turns to another entry.
Req: What value of IC50 has been reported for the following molecule? CN1Cc2c(Cl)cc(Cl)cc2[C@H](c2cccc(-c3cn(CCOCCOCCOCCOCCNC(=O)NCCOCCOCCOCCOCCn4cc(-c5cccc([C@@H]6CN(C)Cc7c(Cl)cc(Cl)cc76)c5)nn4)nn3)c2)C1 [Example 7-43, hydrochloride]
Resp: 8.5

----------
- MEASURED_ON: human NHE3 (Homo sapiens, UniProt P48764)
- Sequence (P48764 26-834): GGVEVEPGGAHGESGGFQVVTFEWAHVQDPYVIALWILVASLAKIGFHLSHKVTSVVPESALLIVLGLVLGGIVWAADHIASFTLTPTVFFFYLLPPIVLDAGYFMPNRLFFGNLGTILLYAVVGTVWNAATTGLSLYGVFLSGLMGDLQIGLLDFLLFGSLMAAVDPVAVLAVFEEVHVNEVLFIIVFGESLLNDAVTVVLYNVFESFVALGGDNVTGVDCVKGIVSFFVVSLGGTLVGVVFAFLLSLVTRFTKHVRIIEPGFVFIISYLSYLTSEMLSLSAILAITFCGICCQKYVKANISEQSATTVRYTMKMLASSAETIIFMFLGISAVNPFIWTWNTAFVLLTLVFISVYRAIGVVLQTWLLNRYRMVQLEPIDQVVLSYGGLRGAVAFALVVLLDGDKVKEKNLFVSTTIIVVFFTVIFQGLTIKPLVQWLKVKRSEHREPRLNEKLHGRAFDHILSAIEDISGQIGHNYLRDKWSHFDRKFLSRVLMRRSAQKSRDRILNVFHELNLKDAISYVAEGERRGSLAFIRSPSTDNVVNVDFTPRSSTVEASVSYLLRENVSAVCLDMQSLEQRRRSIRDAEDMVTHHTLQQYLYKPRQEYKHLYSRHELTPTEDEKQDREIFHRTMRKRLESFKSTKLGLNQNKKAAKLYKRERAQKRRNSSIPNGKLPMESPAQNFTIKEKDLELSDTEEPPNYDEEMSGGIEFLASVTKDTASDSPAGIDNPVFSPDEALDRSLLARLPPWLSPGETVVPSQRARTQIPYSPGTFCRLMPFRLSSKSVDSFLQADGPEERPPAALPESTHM
- TEST_DESCRIPTION: NHE3 inhibition test (recovery of intracellular pH in cell line stably expressing human NHE3)
- CONDITION_DESCRIPTION: OK cells deficient in endogenous NHE stably expressing human NHE3; BCECF fluorescence, initial rate of pH recovery; read-out: human NHE3 inhibitory activity IC50
Where a name gives a salt, the structure may show the parent alone.
MEASUREMENT_KIND: IC50 (nM)
Numbers only; they are read as nM.

Solved entries:
CN1Cc2c(Cl)cc(Cl)cc2[C@H](c2cccc(-c3cncc(NCCOCCOCCNC(=O)NCCCCNC(=O)NCCOCCOCCNc4cncc(-c5cccc([C@@H]6CN(C)Cc7c(Cl)cc(Cl)cc76)c5)n4)n3)c2)C1; 7.5
CN1Cc2c(Cl)cc(Cl)cc2[C@H](c2cccc(-c3cn(CCOCCOCCNC(=O)NCCCCNC(=O)NCCOCCOCCn4cc(-c5cccc([C@@H]6CN(C)Cc7c(Cl)cc(Cl)cc76)c5)nn4)nn3)c2)C1; 2.4

Let us move to another entry and its IC50.
Req: Requested read-out IC50, target or system human NHE3 (Homo sapiens, UniProt P48764), entry CN1Cc2c(Cl)cc(Cl)cc2[C@H](c2cccc(-c3ccc(C(=O)NCCOCCOCCNC(=O)NCCCCNC(=O)NCCOCCOCCNC(=O)c4ccc(-c5cccc([C@@H]6CN(C)Cc7c(Cl)cc(Cl)cc76)c5)cn4)nc3)c2)C1 [Example 7-18, hydrochloride]
Resp: 5.6
